Molecular target: human neutrophil elastase (Homo sapiens, UniProt P08246)
Sequence (P08246 30-267): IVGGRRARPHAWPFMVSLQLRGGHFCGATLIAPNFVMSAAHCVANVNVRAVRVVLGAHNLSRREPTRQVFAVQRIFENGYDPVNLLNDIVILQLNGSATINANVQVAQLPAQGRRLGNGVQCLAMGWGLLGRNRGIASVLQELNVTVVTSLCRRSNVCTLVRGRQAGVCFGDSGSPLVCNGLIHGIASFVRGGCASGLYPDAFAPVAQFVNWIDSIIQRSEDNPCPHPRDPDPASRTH
Assay: In vitro assay of human neutrophil elastase (HNE)
Type: biochemical
Conditions: 118 nM purified human neutrophil elastase, pH 8.6, 15 min incubation at 30° C., MeO-succinyl-alanyl-alanyl-prolyl-valyl-p-nitroanilide substrate; read-out: HNE IC50
Structures can show the parent of a compound that is named as a salt.
Experimental Readout: log10 IC50 (log10 of the value in nM)
Friendly reminder: values = log10 of IC50, unit nM.

Form: compound = CCC[C@H]1C(=O)N(S(C)(=O)=O)[C@H]2CCN(C(=O)CCCN3CCCCC3)[C@H]12 (relative stereo) [Example 87] ; log10 IC50 = 1.98

// log10 IC50 lookup, compound = CCC[C@H]1C(=O)N(S(C)(=O)=O)[C@H]2CCN(C(=O)CCCCCCCCCN(C)c3ccccc3)[C@H]12 (relative stereo) [Example 68, hydrochloride] , result: 1.86

Record CCC[C@H]1C(=O)N(S(C)(=O)=O)[C@H]2CCN(S(=O)(=O)c3ccc(Cl)cc3)[C@H]12 (relative stereo) [Example 215] . Reported log10 IC50: 1.45

Record CCC[C@H]1C(=O)N(S(C)(=O)=O)[C@H]2CCN(C(=O)CCCCCCCCCN(C)C)[C@H]12 (relative stereo) [Example 67] , field log10 IC50: 1.63

For CCC[C@H]1C(=O)N(S(C)(=O)=O)[C@H]2CCN(S(=O)(=O)c3ccc(C(=O)O)cc3)[C@@H]12 (relative stereo) [Example 122] the compound record lists log10 IC50 as 0.60

What the record says about CCC[C@H]1C(=O)N(S(C)(=O)=O)[C@H]2CCN(C(=O)c3ccccc3)[C@H]12 (relative stereo) [Example 233] : log10 IC50 is 1.79

For reference, reported log10 IC50 for CCC[C@H]1C(=O)N(S(=O)(=O)c2ccc3ccccc3c2)[C@H]2CCN(C(=O)CCc3ccccn3)[C@H]12 (relative stereo) [Example 48] stands at 2.09

CCC[C@H]1C(=O)N(S(C)(=O)=O)[C@H]2CCN(C(=O)CN(CC)CC)[C@H]12 (relative stereo) [Example 101, hydrochloride] yielded log10 IC50 of 2.23

The recorded log10 IC50 for entry CC(C)[C@H]1C(=O)N(S(C)(=O)=O)[C@H]2CCN(C(=O)c3ccc(CNC4CC4)o3)[C@H]12 (relative stereo) [Example 252, hydrochloride] equals 1.15

Record CCC[C@H]1C(=O)N(S(C)(=O)=O)[C@H]2CCN(S(=O)(=O)c3ccc(C(=O)N(C)C)cc3)[C@H]12 (relative stereo) [Example 126] . Reported log10 IC50: 1.00

Data point: CCCN(C)C/C=C/C(=O)N1CC[C@H]2[C@H]1[C@@H](C(C)C)C(=O)N2S(C)(=O)=O.Cl (relative stereo) [Example 141, hydrochloride] ; log10 IC50 = 2.25

Summary for this compound, CC(C)[C@H]1C(=O)N(S(C)(=O)=O)[C@H]2CCN(C(=O)c3cccc(CN4CCCC4)c3)[C@H]12 (relative stereo) [Example 193, hydrochloride] : log10 IC50 is 1.70

Each recorded value in this set is attributed to patent US6215002A.
